Record form. Attribute: switch fluorescence ratio. Fill in for each entry.
# Test system: ATP;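 further: ATP exposure 15 min at 22 °C before imaging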
# test: switch fluorescence ratio, 500 uM ATP over buffer (Cy3 cluster intensity, sum of 5 cycles each) (fold (ratio)); higher = stronger signal-on switching upon ATP binding; sequences stand for … in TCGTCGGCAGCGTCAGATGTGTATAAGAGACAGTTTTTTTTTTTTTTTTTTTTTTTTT…TC
# condition-summary: aptamer strand: ATP DNA aptamer (quencher-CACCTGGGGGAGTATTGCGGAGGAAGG + anchor), 100 nM annealed; ATP concentration: 500 uM

| sequence-record | experimental-target | meas-value |
| --- | --- | --- |
| TCCCTGTTTT | ATP | 0.991 |
| AGGATGCTCA | ATP | 1.01 |

For each of the items listed, what is its switch fluorescence ratio?
1. AGCATAATTG
2. TAATTTAGAT
3. TTGTGGCGTT
4. GCGTCGGGTG

Result:
1: 1.01; 2: 1.03; 3: 0.984; 4: 1.02

* * *

# Tested on: ATP;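 further: ATP exposure 15 min at 22 °C before imaging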
# test: switch fluorescence ratio, 500 uM ATP over buffer (Cy3 cluster intensity, sum of 5 cycles each) (fold (ratio)); higher = stronger signal-on switching upon ATP binding; sequences stand for … in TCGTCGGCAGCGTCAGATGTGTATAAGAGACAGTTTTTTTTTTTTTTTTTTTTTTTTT…TC
# condition-summary: aptamer strand: ATP DNA aptamer (quencher-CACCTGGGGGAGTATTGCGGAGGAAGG + anchor), 100 nM annealed; ATP concentration: 500 uM
metric: switch fluorescence ratio
One number for each entry.

Example cases with answers are listed next.
| sequence-record | switch fluorescence ratio |
| --- | --- |
| TCGGGGAAGT | 1.04 |
| GGACGGGAAC | 1.13 |

For each of the items listed, what is its switch fluorescence ratio?
1. TGTGGGATGT
2. GGGGCACTGG

Result:
1. 0.97
2. 1.03

For each of the items listed, what is its switch fluorescence ratio?
1. TAGGGAGCCT
2. CGGGATTCGT

Result:
1. 0.964
2. 1

* * *

Record form. Attribute: switch fluorescence ratio. Fill in for each entry.
# Test system: ATP;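 further: ATP exposure 15 min at 22 °C before imaging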
# test: switch fluorescence ratio, 500 uM ATP over buffer (Cy3 cluster intensity, sum of 5 cycles each) (fold (ratio)); higher = stronger signal-on switching upon ATP binding; sequences stand for … in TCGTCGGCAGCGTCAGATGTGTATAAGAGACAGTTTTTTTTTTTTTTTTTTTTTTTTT…TC
# condition-summary: aptamer strand: ATP DNA aptamer (quencher-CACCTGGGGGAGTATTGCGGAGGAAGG + anchor), 100 nM annealed; ATP concentration: 500 uM
Give bare numbers.

For each of the items listed, what is its switch fluorescence ratio?
1. CTGAGAACTT
2. CGAGAAGGGT
3. TTTCTTCTCA

Result:
[0.983, 0.997, 1.01]

* * *

Record form. Attribute: switch fluorescence ratio. Fill in for each entry.
# System: ATP;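 further: ATP exposure 15 min at 22 °C before imaging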
# test: switch fluorescence ratio, 500 uM ATP over buffer (Cy3 cluster intensity, sum of 5 cycles each) (fold (ratio)); higher = stronger signal-on switching upon ATP binding; sequences stand for … in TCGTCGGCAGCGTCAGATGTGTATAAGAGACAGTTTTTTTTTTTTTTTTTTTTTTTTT…TC
# condition-summary: aptamer strand: ATP DNA aptamer (quencher-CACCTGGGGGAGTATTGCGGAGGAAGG + anchor), 100 nM annealed; ATP concentration: 500 uM
Numbers only.

| sequence-record | switch fluorescence ratio |
| --- | --- |
| TAGTCGGTGG | 0.998 |
| TAATACTGAA | 1.01 |

For each of the items listed, what is its switch fluorescence ratio?
1. TGGGGGGTGT
2. TCCAAAATTT
3. TGATTGGGTC
4. GTTGGTTAGA
5. CGGCTGCGGG
6. TTTTTTATCA
7. CGGGTGGAGG
8. GTGGGGACGG

Result:
[1.02, 0.976, 1.02, 0.978, 0.978, 0.98, 1.02, 0.977]

For each of the items listed, what is its switch fluorescence ratio?
1. AGGCGCAGGT
2. TGCGTGAAAT
3. TTTAGCTTTA
4. AGCTCTGCTA
5. CGGGCGGTGG

Result:
1.01
0.976
0.974
1.02
0.983

For each of the items listed, what is its switch fluorescence ratio?
1. CCAATTTGTG
2. AAGACGAGTT

Result:
1. 1
2. 0.996
